Give measured pIC50 for each item. Keep answers brief.
# tested on: recombinant human IL-17AA (Homo sapiens, UniProt Q16552)
# Sequence (Q16552 24-155): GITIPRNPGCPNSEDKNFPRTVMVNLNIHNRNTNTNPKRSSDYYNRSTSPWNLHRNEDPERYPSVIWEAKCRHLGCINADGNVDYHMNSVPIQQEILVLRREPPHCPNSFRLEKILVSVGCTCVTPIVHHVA
# method notes: IL-6 release from NHDF cells, IL-17AA plus TNF-α stimulation
# Assay type: cell-based
# settings: NHDF cells, IL-17AA 30 pM + TNF-α 6 pM, 24 hours, IL-6 by ELISA; read-out: IL17AA + TNF IC50 IL-6
Formally, pIC50 is defined as -log10 of the concentration c, with c in mol/L.

Query: State its pIC50 for this compound: Cc1cc[n+]([O-])c(C)c1-c1ccc(NC(=O)[C@H](Cc2ccccc2F)NC(=O)c2ccnn2C)cc1
Result: 5.53

Query: State its pIC50 for this compound: Cc1cc[n+]([O-])c(C)c1-c1ccc(NC(=O)[C@@H](NC(=O)c2ccc3n2CCNC3)C2CCC(F)CC2)cc1 (stereo partly shown)
Result: 6.38

Query: State its pIC50 for this compound: Cc1c(-c2ccc(NC(=O)[C@@H](NC(=O)c3ccc4n3CCNC4)C3CCC(F)(F)CC3)cc2)c(Cl)cc[n+]1[O-]
Result: 7.90

Query: State its pIC50 for this compound: Cc1cc[n+]([O-])c(C)c1-c1ccc(NC(=O)[C@@H](NC(=O)c2ccc3n2CCNC3)C2CCCCC2)cc1
Result: 7.24

====

# tested on: biotinylated human IL-17A / AF647-labeled human IL-17RA (Homo sapiens)
# method notes: Human IL-17A×IL-17RA TR-FRET assay
# Assay type: binding
# settings: TR-FRET, biotinylated human IL-17A 5 nM, AF647-labeled human IL-17RA 30 nM; read-out: IL17AA FRET/ IL17Rawt IC50
# Method: Human IL-17A×IL-17RA TR-FRET Assay Each compound concentration is tested in duplicate. The final total assay volume is 10 μL. Each plate contains test compounds in columns 1-22 and controls in columns 23 and 24. The neutral control (NC) contains all the assay components, but DMSO instead of test compound. […] The fluorescence values for emission at 615 nm and 665 nm are loaded to the evaluation software Helios. […]
Give measured IC50 for each item. Keep answers brief.
Numbers only here, please. The scale is nM.

Query: State measured IC50 of the molecule Cc1c(-c2cc(F)c(NC(=O)[C@@H](NC(=O)c3ccnn3C)C3CCCCC3)cc2F)c(Cl)cc[n+]1[O-] [Example 63] with biotinylated human IL-17A / AF647-labeled human IL-17RA (Homo sapiens).
Result: 247

Query: State measured IC50 of the molecule Cc1cc[n+]([O-])c(C)c1-c1ccc(NC(=O)[C@@H](NC(=O)c2ccoc2C)C2CCCCC2)cc1 [Example 53] with biotinylated human IL-17A / AF647-labeled human IL-17RA (Homo sapiens).
Result: 16

Query: State measured IC50 of the molecule Cc1cc[n+]([O-])c(Cl)c1-c1ccc(NC(=O)[C@@H](NC(=O)c2ccnn2C)C2CCCCC2)cc1 [Example 89] with biotinylated human IL-17A / AF647-labeled human IL-17RA (Homo sapiens).
Result: 286

Query: State measured IC50 of the molecule Cc1c[n+]([O-])cc(C)c1-c1ccc(NC(=O)[C@@H](NC(=O)c2ccnn2C2CC2)C2CCCCC2)cc1 [Example 98] with biotinylated human IL-17A / AF647-labeled human IL-17RA (Homo sapiens).
Result: 1400

====

# tested on: biotinylated human IL-17A / AF647-labeled human IL-17RA (Homo sapiens)
# method notes: Human IL-17A×IL-17RA TR-FRET assay
# Type: binding
# settings: TR-FRET, biotinylated human IL-17A 5 nM, AF647-labeled human IL-17RA 30 nM; read-out: IL17AA FRET/ IL17Rawt IC50
Give measured IC50 for each item. Keep answers brief.
Numbers only here, please. The scale is nM.

Query: State measured IC50 of the compound Cc1cc[n+]([O-])c(C)c1-c1ccc(NC(=O)[C@@H](NC(=O)c2conc2CN(C)C)C2CCCCC2)cc1 with biotinylated human IL-17A / AF647-labeled human IL-17RA (Homo sapiens).
Result: 4450

Query: State measured IC50 of the compound CCn1nccc1C(=O)N[C@@H](C(=O)Nc1ccc(-c2c(Cl)cc[n+]([O-])c2C)cc1)C1CCC(F)(F)CC1 (single isomer, unassigned) [Example 13b] with biotinylated human IL-17A / AF647-labeled human IL-17RA (Homo sapiens).
Result: 30400

Query: State measured IC50 of the compound Cn1nccc1C(=O)N[C@H](C(=O)Nc1ccc(-c2c[n+]([O-])ccc2Cl)c(F)c1)C1CCCCC1 with biotinylated human IL-17A / AF647-labeled human IL-17RA (Homo sapiens).
Result: 601

Query: State measured IC50 of the compound Cc1nocc1C(=O)N[C@H](C(=O)Nc1ccc(-c2c(Cl)cc[n+]([O-])c2C)cc1)C1CCC(F)(F)CC1 with biotinylated human IL-17A / AF647-labeled human IL-17RA (Homo sapiens).
Result: 58

Query: State measured IC50 of the compound Cc1nocc1C(=O)NC(C(=O)Nc1ccc(-c2c(Cl)cc[n+]([O-])c2C)cc1)C1CC2CC2C1 (centres unmarked) with biotinylated human IL-17A / AF647-labeled human IL-17RA (Homo sapiens).
Result: 86

Query: State measured IC50 of the compound Cc1cc[n+]([O-])c(C)c1-c1ccc(NC(=O)[C@@H](NC(=O)c2ccc3n2CCN(C2COC2)C3)[C@H]2CC[C@H](C(F)(F)F)CC2)cc1 with biotinylated human IL-17A / AF647-labeled human IL-17RA (Homo sapiens).
Result: 866

Query: State measured IC50 of the compound Cc1c(-c2ccc(NC(=O)[C@@H](NC(=O)c3ccnn3C)C3CCCCC3)cc2)c(C(F)(F)F)cc[n+]1[O-] with biotinylated human IL-17A / AF647-labeled human IL-17RA (Homo sapiens).
Result: 124

Query: State measured IC50 of the compound Cc1c(-c2ccc(NC(=O)[C@@H](NC(=O)c3ccnn3C)C3CCC(F)(F)CC3)cc2)c(Cl)cc[n+]1[O-] with biotinylated human IL-17A / AF647-labeled human IL-17RA (Homo sapiens).
Result: 43

Query: State measured IC50 of the compound Cc1c[n+]([O-])cc(C)c1-c1ccc(NC(=O)[C@@H](NC(=O)c2ccnn2C2CC2)C2CCCCCC2)cc1 with biotinylated human IL-17A / AF647-labeled human IL-17RA (Homo sapiens).
Result: 243

Query: State measured IC50 of the compound Cc1cc[n+]([O-])c(C)c1-c1ccc(NC(=O)[C@@H](NC(=O)c2ccnn2C)C2CCCCC2)cc1 with biotinylated human IL-17A / AF647-labeled human IL-17RA (Homo sapiens).
Result: 191

Query: State measured IC50 of the compound Cc1c(-c2ccc(NC(=O)[C@@H](NC(=O)c3ccnn3C)C3CCCCC3)nc2)c(Cl)cc[n+]1[O-] with biotinylated human IL-17A / AF647-labeled human IL-17RA (Homo sapiens).
Result: 123

Query: State measured IC50 of the compound Cc1c(-c2ccc(NC(=O)[C@@H](NC(=O)c3ccnn3C)C3CCC(F)(F)CC3)cc2)c(C(F)(F)F)cc[n+]1[O-] with biotinylated human IL-17A / AF647-labeled human IL-17RA (Homo sapiens).
Result: 121

Query: State measured IC50 of the compound CCn1nccc1C(=O)N[C@H](C(=O)Nc1ccc(-c2c(C(F)(F)F)cc[n+]([O-])c2C)cc1)C1CCCC1 with biotinylated human IL-17A / AF647-labeled human IL-17RA (Homo sapiens).
Result: 39

Query: State measured IC50 of the compound Cc1c(-c2ccc(NC(=O)[C@@H](NC(=O)c3ccnn3C)C3CCCCC3)c(Cl)c2)c(Cl)cc[n+]1[O-] with biotinylated human IL-17A / AF647-labeled human IL-17RA (Homo sapiens).
Result: 20900

====

# tested on: recombinant human IL-17AA (Homo sapiens)
# method notes: IL-6 release from NHDF cells, IL-17AA plus TNF-α stimulation
# Type: cell-based
# settings: NHDF cells, IL-17AA 30 pM plus TNF-α 6 pM, 24 hours, IL-6 by ELISA; read-out: IL17AA + TNF IC50 IL-6
# Experimental: IL-6 Release from NHDF Cells (Normal Human Dermal Fibroblasts) NHDF cells isolated from normal adult mesoderm, connective tissues were cultured in fibroblast growth medium containing 2% supplement. […] Diluted compounds were pre-incubated with recombinant human IL-17AA or IL-17AF plus human TNF-α for 30 minutes at room temperature on a shaker. […] The supernatants were collected to quantify IL-6 by ELISA according to the manufacturers instructions. […]
Give measured pIC50 for each item. Keep answers brief.
Formally, pIC50 is defined as -log10 of the concentration c, with c in mol/L.

Query: State its pIC50 for this compound: Cc1c(-c2ccc(NC(=O)[C@@H](NC(=O)c3ccnn3C)C3CCCCC3)cc2F)c(Cl)cc[n+]1[O-] (single isomer, unassigned) [Example 2b]
Result: 7.85

Query: State its pIC50 for this compound: Cc1cc[n+]([O-])c(C)c1-c1ccc(NC(=O)[C@@H](NC(=O)c2ccnn2C)C2CCC(F)(F)C2)cc1 (stereo partly drawn) [Example 87]
Result: 6.30

Query: State its pIC50 for this compound: CCc1nocc1C(=O)N[C@H](C(=O)Nc1ccc(-c2c(C)cc[n+]([O-])c2C)cc1)C1CCC(F)(F)CC1 [Example 31]
Result: 7.82
